- Experiment: solvent given as SMILES
- Experimental parameters: in C1CCOC1
Kind request: treat 400 nm as inclusive, so absorption maximum at 400 nm or higher is 1 (yes), anything lower is 0 (no).

Problem: Does the reported absorption maximum for O=c1[nH]c2ccccc2[nH]1 fall at or above the 400 nm mark?
Result: 0 (no)

Problem: Does the reported absorption maximum for N#Cc1ccc2c(c1)CCc1nc(-c3ccc([N+](=O)[O-])cc3)c3c(c1-2)CCc1cc(C#N)ccc1-3 fall at or above the 400 nm mark?
Result: 0 (no)

Problem: Does the reported absorption maximum for C(=C(c1ccccc1)c1ccccc1)c1ccc(-c2ccc(C=C(c3ccccc3)c3ccccc3)cc2)cc1 fall at or above the 400 nm mark?
Result: 0 (no)

Problem: Does the reported absorption maximum for O=C(N/N=C/c1ccccc1O)c1cccc2ccccc12 fall at or above the 400 nm mark?
Result: 0 (no)

Problem: Does the reported absorption maximum for C1=C(c2ccc(-c3cccs3)s2)CCC1 fall at or above the 400 nm mark?
Result: 0 (no)

Problem: Does the reported absorption maximum for O=[N+]([O-])c1ccc([N+]2=Cc3ccc4c5c(ccc4c3O[B-]2(c2c(F)c(F)c(F)c(F)c2F)c2c(F)c(F)c(F)c(F)c2F)C=[N+](c2ccc([N+](=O)[O-])cc2)[B-](c2c(F)c(F)c(F)c(F)c2F)(c2c(F)c(F)c(F)c(F)c2F)O5)cc1 fall at or above the 400 nm mark?
Result: 1 (yes)

Problem: Does the reported absorption maximum for CC(C)(C)c1cc2ccc3cc(C(C)(C)C)cc4c3c2c(c1)c(=O)n1c4nc2c3ccccc3c3ccccc3c21 fall at or above the 400 nm mark?
Result: 0 (no)

Problem: Does the reported absorption maximum for CC(C)(C)c1ccc(-c2nc(-c3ccc(C(C)(C)C)cc3)nc(-c3ccc(-n4c5ccccc5c5c6oc7ccccc7c6ccc54)c(C#N)c3)n2)cc1 fall at or above the 400 nm mark?
Result: 0 (no)

Problem: Does the reported absorption maximum for Cc1ccc(/C=C/C(F)(F)F)c(N)c1 fall at or above the 400 nm mark?
Result: 0 (no)

Problem: Does the reported absorption maximum for CC(C)(C)c1ccc2c(c1)c1cc(C(C)(C)C)ccc1n2-c1ccc(C(=O)c2ccc(-n3c4ccc(C(C)(C)C)cc4c4cc(C(C)(C)C)ccc43)nc2)cn1 fall at or above the 400 nm mark?
Result: 0 (no)

Problem: Does the reported absorption maximum for CC(C)(C)c1ccc2c3c(c4ccc(C(C)(C)C)cc4c2c1)=[N+]1C(=C(c2ccccc2)c2c(Br)c4c5ccc(C(C)(C)C)cc5c5cc(C(C)(C)C)ccc5c4n2[B-]1(F)F)C=3Br fall at or above the 400 nm mark?
Result: 1 (yes)

Problem: Does the reported absorption maximum for COc1cc2c(cc1/C=C(\C#N)c1nc3ccccc3s1)c1ccccc1n2C fall at or above the 400 nm mark?
Result: 1 (yes)

Problem: Does the reported absorption maximum for O=C(c1ccc(C(=C(c2ccccc2)c2ccccc2)c2ccccc2)cc1)c1ccc(-n2c3ccccc3c3ccccc32)cc1 fall at or above the 400 nm mark?
Result: 0 (no)

Problem: Does the reported absorption maximum for N#C[Se]CCCCCOc1ccc2ccc(=O)oc2c1 fall at or above the 400 nm mark?
Result: 0 (no)

Problem: Does the reported absorption maximum for CCOC(=O)C1=CN(Cc2ccccc2)C=C(C(=O)OCC)C1 fall at or above the 400 nm mark?
Result: 0 (no)

Problem: Does the reported absorption maximum for CN(C)CCNCc1c2ccccc2cc2ccccc12 fall at or above the 400 nm mark?
Result: 0 (no)

Problem: Does the reported absorption maximum for N#Cc1ccc(N(c2ccc(C#N)cc2)c2ccc3c4cccc5c(N(c6ccc(C#N)cc6)c6ccc(C#N)cc6)ccc(c6cccc2c63)c54)cc1 fall at or above the 400 nm mark?
Result: 1 (yes)

Problem: Does the reported absorption maximum for CCCCCOc1ccc2c(c1)c1ccc3cccc4c5cccc6oc(=O)c2c(c65)c1c34 fall at or above the 400 nm mark?
Result: 1 (yes)

Problem: Does the reported absorption maximum for CN(C)c1ccc(/C=C/c2cccnn2)cc1 fall at or above the 400 nm mark?
Result: 0 (no)

Problem: Does the reported absorption maximum for Cc1cccc(NC(=O)c2ccc(N(C)C)cc2)c1 fall at or above the 400 nm mark?
Result: 0 (no)

Problem: Does the reported absorption maximum for CC1=N/C(=C\c2ccc(N(C)C)cc2)C(=O)N1C fall at or above the 400 nm mark?
Result: 1 (yes)

Problem: Does the reported absorption maximum for c1ccc(-c2nc(-c3ccc(-c4ccc(-n5c6ccccc6c6ccccc65)cc4)cn3)oc2-c2ccccc2)cc1 fall at or above the 400 nm mark?
Result: 0 (no)

Problem: Does the reported absorption maximum for Cc1ccsc1-c1cc2c3cc(-c4sccc4C)c4nc(C(F)(F)C(F)(F)C(F)(F)F)nc5c(-c6sccc6C)cc(c6cc(-c7sccc7C)c7nc(C(F)(F)C(F)(F)C(F)(F)F)nc1c7c26)c3c45 fall at or above the 400 nm mark?
Result: 1 (yes)

Problem: Does the reported absorption maximum for COc1ccc2nc3c(nc2c1)c(-c1ccccc1)nn3C fall at or above the 400 nm mark?
Result: 1 (yes)

Problem: Does the reported absorption maximum for COc1ccc(-c2nc3c(c4c2-c2ccc(C#N)cc2CC4)-c2ccc(C#N)cc2CC3)cc1 fall at or above the 400 nm mark?
Result: 0 (no)

Problem: Does the reported absorption maximum for CC(=O)O[B-]1(OC(C)=O)OC(/C=C/c2ccccc2)=CC(/C=C/c2ccccc2)=[O+]1 fall at or above the 400 nm mark?
Result: 1 (yes)

Problem: Does the reported absorption maximum for C1=C(c2ccccc2)C=C(c2ccccc2)/C1=C/c1ccccc1 fall at or above the 400 nm mark?
Result: 1 (yes)

Problem: Does the reported absorption maximum for Cc1cc(C)c(B(c2ccc(-c3nc4c5ccccc5c5ccccc5c4[nH]3)cc2)c2c(C)cc(C)cc2C)c(C)c1 fall at or above the 400 nm mark?
Result: 0 (no)

Problem: Does the reported absorption maximum for c1ccc(-c2nc3c(c4c2-c2ccccc2CC4)-c2ccccc2CC3)cc1 fall at or above the 400 nm mark?
Result: 0 (no)

Problem: Does the reported absorption maximum for CN(C)c1ccc(C2=Cc3c4ccccc4c4ccccc4[n+]3[B-](F)(F)O2)cc1 fall at or above the 400 nm mark?
Result: 1 (yes)

Problem: Does the reported absorption maximum for O=C(O)c1ccccc1Nc1ccccc1 fall at or above the 400 nm mark?
Result: 0 (no)

Problem: Does the reported absorption maximum for CCCCCCCCCCCn1cccc1C1=[N+]2C(=Cc3c(C)cc(C)n3[B-]2(F)F)c2ccccc21 fall at or above the 400 nm mark?
Result: 1 (yes)
